Target: T1, Human CD3eg linker (human)
T1 construct: Single-chain construct; also called recombinant human CD3
T1 chain: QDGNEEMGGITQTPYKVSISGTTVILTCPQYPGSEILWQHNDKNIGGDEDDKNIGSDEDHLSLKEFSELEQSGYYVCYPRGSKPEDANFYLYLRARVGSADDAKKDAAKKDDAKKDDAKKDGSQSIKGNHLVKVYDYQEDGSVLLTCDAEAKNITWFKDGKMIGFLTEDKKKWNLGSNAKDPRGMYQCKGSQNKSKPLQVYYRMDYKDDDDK
Assay: SPR; fold vs parent H183/L072
Each entry below carries its reported fold change of affinity.

See these solved cases before continuing.
>>> val("H183/L072 VL N53F (antibody, name in Kabat numbering, V domains shown) VH: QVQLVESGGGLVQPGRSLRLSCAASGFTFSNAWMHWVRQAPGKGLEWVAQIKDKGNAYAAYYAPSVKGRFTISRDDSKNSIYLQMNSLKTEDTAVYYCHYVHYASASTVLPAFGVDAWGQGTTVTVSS VL: DIVMTQSPLSLPVTPGEPASISCQASQELVHMNRNTYLHWYQQKPGQAPRLLIYKVSFRFPGVPDRFSGSGSGTDFTLKISRVEAEDVGVYYCAQGTSVPFTFGQGTKLEIK")
"0.7 fold"
>>> val("H183/L072 VL L33G (antibody, name in Kabat numbering, V domains shown) VH: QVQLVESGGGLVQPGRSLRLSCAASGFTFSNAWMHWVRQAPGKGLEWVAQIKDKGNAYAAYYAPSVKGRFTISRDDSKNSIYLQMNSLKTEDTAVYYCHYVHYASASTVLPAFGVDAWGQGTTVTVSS VL: DIVMTQSPLSLPVTPGEPASISCQASQELVHMNRNTYGHWYQQKPGQAPRLLIYKVSNRFPGVPDRFSGSGSGTDFTLKISRVEAEDVGVYYCAQGTSVPFTFGQGTKLEIK")
"0 fold"

Ask | Name the reported fold change of affinity value associated with the binder H183/L072 VL R54I (antibody, name in Kabat numbering, V domains shown) VH: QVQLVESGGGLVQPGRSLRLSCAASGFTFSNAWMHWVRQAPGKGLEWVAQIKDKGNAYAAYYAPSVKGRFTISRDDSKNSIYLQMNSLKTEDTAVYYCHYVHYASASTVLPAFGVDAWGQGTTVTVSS VL: DIVMTQSPLSLPVTPGEPASISCQASQELVHMNRNTYLHWYQQKPGQAPRLLIYKVSNIFPGVPDRFSGSGSGTDFTLKISRVEAEDVGVYYCAQGTSVPFTFGQGTKLEIK
Reply | 1.3 fold

Ask | Name the reported fold change of affinity value associated with the binder H183/L072 VL M27eW (antibody, name in Kabat numbering, V domains shown) VH: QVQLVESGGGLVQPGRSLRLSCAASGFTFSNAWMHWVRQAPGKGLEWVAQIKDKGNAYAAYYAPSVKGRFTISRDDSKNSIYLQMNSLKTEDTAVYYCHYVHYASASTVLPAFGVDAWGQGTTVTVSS VL: DIVMTQSPLSLPVTPGEPASISCQASQELVHWNRNTYLHWYQQKPGQAPRLLIYKVSNRFPGVPDRFSGSGSGTDFTLKISRVEAEDVGVYYCAQGTSVPFTFGQGTKLEIK
Reply | 1 fold

Ask | Name the reported fold change of affinity value associated with the binder H183/L072 VL R29M (antibody, name in Kabat numbering, V domains shown) VH: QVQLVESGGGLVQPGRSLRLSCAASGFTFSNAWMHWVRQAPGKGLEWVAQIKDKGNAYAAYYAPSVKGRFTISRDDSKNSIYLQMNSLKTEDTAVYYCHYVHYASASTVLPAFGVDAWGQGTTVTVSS VL: DIVMTQSPLSLPVTPGEPASISCQASQELVHMNMNTYLHWYQQKPGQAPRLLIYKVSNRFPGVPDRFSGSGSGTDFTLKISRVEAEDVGVYYCAQGTSVPFTFGQGTKLEIK
Reply | 0.7 fold

Value source: patent US20210388087A1
